Exercise: state measured melting point for each of the molecules provided.

Write down melting point measured for item CC(C)CNc1nccc(Oc2ccc(NC(=O)c3cc(F)cc(N4CCOCC4)c3)c3ccccc23)n1 [Compound B318]
96 to 97 °C

Write down melting point measured for item CC(C)(C)OC(=O)NC1CCN(c2nccc(Oc3ccc(NC(=O)c4cc(F)cc(N5CCCCC5)c4)c4ccccc34)n2)CC1 [Compound B410]
211 to 212 °C

Write down melting point measured for item C[C@@H]1CN(c2nccc(Oc3ccc(NC(=O)c4cc(F)cc(N5CCCCC5)c4)c4ccccc34)n2)C[C@H](C)O1 [Compound B416]
174 to 176 °C

Write down melting point measured for item O=C(Nc1ccc(OCCN2CCCC2=O)c2ccccc12)c1cc(F)cc(N2CCCCC2)c1 [Compound B181]
161 to 162 °C

Write down melting point measured for item CC1=NC(C)(COc2ccc(NC(=O)c3cc(F)cc(N4CCOCC4)c3)c3ccccc23)CO1 (stereo not drawn) [Compound B232]
203 to 206 °C

Write down melting point measured for item CCOC(=O)N1CCC(Nc2nccc(Oc3ccc(NC(=O)c4cc(F)cc(N5CCOCC5)c4)c4ccccc34)n2)CC1 [Compound B341]
122 to 124 °C

Write down melting point measured for item CC1CCCN(c2cc(F)cc(C(=O)Nc3ccc(OCCN4CCOCC4)c4ccccc34)c2)C1 (stereo not drawn) [Compound B202]
145 to 148 °C

Write down melting point measured for item O=C1CN(CCCOc2ccc(NC(=O)c3cc(F)cc(N4CCCCC4)c3)c3ccccc23)CCN1 [Compound B175]
90 to 92 °C

Look up melting point for the entries below, preserving their order.
1. CCn1c(COc2ccc(NC(=O)c3cc(F)cc(N4CCOCC4)c3)c3ccccc23)n[nH]c1=O [Compound B255]
2. O=C(Nc1ccc(OCCN2CCOCC2)c2ccccc12)c1cc(F)cc(OC2CCCC2)c1 [Compound B225]
3. N#Cc1ccc(C(=O)Nc2ccc(OCCN3CCOCC3)c3ccccc23)cc1 [Compound B36]

["260 °C", "117 to 119 °C", "213 to 214 °C"]

Look up melting point for the entries below, preserving their order.
1. CN1CCCC1CCNc1nccc(Oc2ccc(NC(=O)c3cc(F)cc(N4CCCCC4)c3)c3ccccc23)n1 (stereo not drawn) [Compound B394]
2. O=C(Nc1ccc(OCCCN2CCNCC2)c2ccccc12)c1cc(F)cc(N2CCCCC2)c1 [Compound B183]
3. CN(Cc1ccco1)c1nccc(Oc2ccc(NC(=O)c3cc(F)cc(N4CCCCC4)c3)c3ccccc23)n1 [Compound B418]
4. COCCNc1nccc(Oc2ccc(NC(=O)c3cc(F)cc(N4CCCCC4)c3)c3ccccc23)n1 [Compound B374]

1: 112 to 114 °C; 2: 70 to 72 °C; 3: 155 to 156 °C; 4: 87 to 88 °C

Look up melting point for the entries below, preserving their order.
1. O=C(Nc1ccc(Oc2ccnc(N3CCCCC3)n2)c2ccccc12)c1cc(F)cc(N2CCOCC2)c1 [Compound B324]
2. CSc1nccc(Oc2ccc(NC(=O)c3cc(F)cc(N4CCOCC4)c3)c3ccccc23)n1 [Compound B246]
3. O=C(Nc1ccc(Oc2ccnc(N3CCC(F)(F)CC3)n2)c2ccccc12)c1cc(F)cc(N2CCCCC2)c1 [Compound B423]
4. O=C(Nc1ccc(Oc2ccnc(NCC3CC3)n2)c2ccccc12)c1cc(F)cc(N2CCOCC2)c1 [Compound B336]
5. COCCN(C)c1nccc(Oc2ccc(NC(=O)c3cc(F)cc(N4CCCCC4)c3)c3ccccc23)n1 [Compound B414]

190 to 191 °C
189 to 190 °C
172 to 174 °C
116 to 117 °C
81 to 82 °C

Look up melting point for the entries below, preserving their order.
1. O=C(Nc1ccc(Oc2ccnc(-n3ccnc3)n2)c2ccccc12)c1cc(F)cc(N2CCOCC2)c1 [Compound B325]
2. CC(C)(C)OC(=O)N1CCN(c2nccc(Oc3ccc(NC(=O)c4cc(F)cc(N5CCOCC5)c4)c4ccccc34)n2)CC1 [Compound B340]
3. CSc1nccc(Oc2ccc(NC(=O)c3cccc(OC(C)(C)C)c3)c3ccccc23)n1 [Compound B306]
4. O=C(Nc1ccc(OCCN2CCOCC2)c2ccccc12)c1cc(N2CCOCC2)ncn1 [Compound B54]
5. O=C(Nc1ccc(OCCCN2CCCC2=O)c2ccccc12)c1cc(F)cc(N2CCCCC2)c1 [Compound B182]
6. COc1cccc(C(=O)Nc2ccc(OCCN3CCOCC3)c3ccccc23)c1 [Compound B60]
7. O=C(Nc1ccc(Oc2ccnc(NC3CCC3)n2)c2ccccc12)c1cc(F)cc(N2CCOCC2)c1 [Compound B331]

1. 153 to 154 °C
2. 131 to 133 °C
3. 135 to 136 °C
4. 50 to 51 °C
5. 88 to 89 °C
6. 105 to 107 °C
7. 110 to 112 °C

Look up melting point for the entries below, preserving their order.
1. COCCNc1nccc(Oc2ccc(NC(=O)c3cc(F)cc(N4CCOCC4)c3)c3ccccc23)n1 [Compound B319]
2. O=C(Nc1ccc(OCCN2CCOCC2)c2ccccc12)c1ccc2snnc2c1 [Compound B50]
3. O=C1CN(c2nccc(Oc3ccc(NC(=O)c4cc(F)cc(N5CCOCC5)c4)c4ccccc34)n2)CCN1 [Compound B368]

["95 to 97 °C", "188 to 190 °C", "108 to 110 °C"]
